experimental.protocol: clinical
measurement.context: human, plasma, oral, 200 mg
quantity.name: Cmax

For NC(N)=N/N=C/C=C/c1cccn1-c1ccccc1[N+](=O)[O-] , what is its reported Cmax? ≤ 900 ng/mL

###

experimental.protocol: clinical
measurement.context: male, human, plasma, oral
quantity.name: Vd/F

What value of measured Vd/F is listed for NC(N)=N/N=C/C=C/c1cccn1-c1ccccc1[N+](=O)[O-] ? 556 to 784 L

###

experimental.protocol: clinical
measurement.context: male, human, plasma, po
quantity.name: Tmax

I have this molecule here, NC(N)=N/N=C/C=C/c1cccn1-c1ccccc1[N+](=O)[O-] [AP1189] , and I need its recorded Tmax. 1 to 4 h

These measurements were taken from patent US20210121418A1.
